Sourced from paper PMC6061379

PROTOCOL DESCRIPTION: Plasma protein binding
Assay type: in vitro ADME
EXPERIMENTAL PARAMETERS: human
MEASUREMENT NAME: fraction unbound

CC(C)(Sc1ccncc1-c1ccc(C#N)c2ccccc12)C(=O)O | 0.013 to 0.024
